Target: BRD4 (BDII_E352-M457) (Homo sapiens)
Experiment: TR-FRET bromodomain binding assay, BRD4 second bromodomain
Conditions: His-tagged BD2, Alexa647-labeled probe 30 nM; Ki calculated from IC50
PROPERTY LABEL: Ki (µM)

In the examples that follow, each entry is paired with its recorded Ki.
STRUCTURE SMILES STRING: Cc1[nH]c(-c2ccccc2NC[C@H]2CC[C@@H](NC(=O)OC(C)(C)C)CC2)cc1C(N)=O
Ki / µM: 9.29
--
STRUCTURE SMILES STRING: Cc1ccccc1CNc1ccccc1-c1cc(C(N)=O)c(C)[nH]1
Ki / µM: 1.19
--
STRUCTURE SMILES STRING: Cc1[nH]c(-c2cccc(-c3ccccc3)c2)cc1C(N)=O
Ki / µM: 9.69

[1] Cc1[nH]c(-c2ccccc2NCc2cccc(N)c2)cc1C(N)=O
[2] Cc1[nH]c(-c2cccc(-c3cccnc3)c2)cc1C(N)=O
// query Name the one with the greater Ki value, either 1 or 2 as given. I would appreciate it if you answered with the label of your choice.
// result 2

* * *

Biological target: UniProtKB O60885
Test: TR-FRET bromodomain binding assay, BRD4 second bromodomain
Settings: His-tagged BD2, Alexa647-labeled probe 30 nM; Ki calculated from IC50
Method: A time-resolved fluorescence resonance energy transfer (TR-FRET) assay was used to determine the affinities of compounds of the Examples listed in Table 1 for each bromodomain of BRD4. […] Compound dilution series were prepared in DMSO via a 3-fold serial dilution from 2.5 mM to 42 nM. […] After a one-hour incubation at room temperature, TR-FRET ratios were determined using an Envision multilabel plate reader (Ex 340, Em […]). […]
PROPERTY LABEL: Ki (µM)

Previously resolved entries follow.
COMPOUND: Cc1[nH]c(-c2ccccc2NC[C@H]2CC[C@H](NC(=O)OC(C)(C)C)CC2)cc1C(N)=O [Example 46]
Ki / µM: 16.3
//
COMPOUND: Cc1[nH]c(-c2ccc(-c3cncnc3)cc2)cc1C(N)=O [Example 109]
Ki / µM: 4.42
//
COMPOUND: Cc1[nH]c(-c2ccccc2Oc2cccc3c2CCCC3)cc1C(N)=O [Example 136]
Ki / µM: 1.98
//
COMPOUND: Cc1[nH]c(-c2ccccc2NCC2CCCCC2)cc1C(N)=O [Example 36]
Ki / µM: 1.16
//
COMPOUND: COc1cc(-c2ccc(-c3cc(C(N)=O)c(C)[nH]3)cc2)cc(OC)c1OC [Example 99]
Ki / µM: 2.32

[P] Cc1n[nH]c(C)c1-c1ccc(-c2cc(C(N)=O)c(C)[nH]2)cc1 [Example 112]
[Q] CC(=O)c1ccccc1-c1cccc(-c2cc(C(N)=O)c(C)[nH]2)c1 [Example 153]
// query Between the two listed entries P and Q , which has its Ki at the higher number? Let me know the label of the one you choose.
// result Q
(Q: 7.32 µM, P: 4.31 µM)

[P] Cc1[nH]c(-c2ccccc2Oc2cccc3cnccc23)cc1C(N)=O [Example 125]
[Q] Cc1[nH]c(-c2ccccc2Nc2ccccc2)cc1C(N)=O [Example 77]
[R] CCOC(=O)CCN(Cc1ccccc1)C(=O)c1cc(-c2ccc(-c3c(C)noc3C)cc2)[nH]c1C [Example 96]
[S] Cc1[nH]c(-c2cccc(-c3ccc(C(=O)NCCN(C)C)cc3)c2)cc1C(N)=O [Example 159]
[T] Cc1[nH]c(-c2ccc(-c3cccc(N4CCOCC4)c3)cc2)cc1C(N)=O [Example 105]
// query With regard to Ki, arrange the entries in ascending order, please. Your reply should list the labels following the order given in the request.
// result P, Q, S, T, R

[A] Cc1[nH]c(-c2ccccc2Oc2ccccc2Cc2ccccc2)cc1C(N)=O [Example 138]
[B] Cc1[nH]c(-c2cccc3[nH]cnc23)cc1C(N)=O [Example 163]
// query Could you please tell me which of these two has the higher Ki: A or B ? Answer by quoting the chosen item's label.
// result B
